test system: PrP^Sc in dividing ScN2a-cl3 cells; type: cell-based, mouse; conditions: AMT analogs tested for potency
Rule: EC50 below 1 µM gives True. Equal to or above 1 µM gives False.

[Q] Report whether reported EC50 is lower than 1 µM (strictly) for Cc1ccnc(Nc2nc(-c3ccncc3)cs2)c1
[A] False

###

test: Single-dose pharmacokinetics in FVB mice (oral gavage, IV); details: female, FVB, mouse, plasma, iv, 1 mg/kg, Half-life, 1 mg/kg IV, female FVB mice
Readout Name: half-life (h)
Response body: numeric value in h, unit text excluded.

[Q] Query (compound): Cc1cccc(Nc2nc(-c3ccc(-c4ccccc4)cc3)cs2)n1 ; field requested: half-life
[A] 2

###

tested on: MDCK-MDR1 cells; assay: Permeability in MDCK-MDR1 cells; conditions: MDR1-MDCK cell monolayers, apical to basal
This section presents compounds with their documented Permeability PA→B values.

[Q] Query (compound): Cc1ccc(Nc2nc(-c3cc(-c4ccccc4)no3)cs2)nc1 ; field requested: Permeability PA→B
[A] 6.8 10^−6 cm/sec

Now, please, on to the next compound.
[Q] Query (compound): Cc1ccc(Nc2nc(-c3c(-c4ccccc4)noc3C)cs2)nc1 ; field requested: Permeability PA→B
[A] 11.2 10^−6 cm/sec

###

This section presents compounds with their documented half-life values.
assay: Single-dose pharmacokinetics in FVB mice (oral gavage, IV); settings: female, FVB, mouse, plasma, po, 40 mg/kg, t1/2, PO 40 mg/kg, female FVB mice
Response body: numeric value in h, unit text excluded.

Solved cases below.
[Q] Query (compound): Cc1cccc(Nc2nc(-c3ccc(-c4ccccc4)cc3)cs2)n1 ; field requested: half-life
[A] 4.65

[Q] Query (compound): C(=N\Nc1ccc(-c2cnco2)cc1)/c1ccncc1 [IND54304, reference compound] ; field requested: half-life
[A] 1

***
[Q] Query (compound): Cc1ccnc(Nc2nc(-c3ccc(-c4ccccn4)s3)cs2)c1 ; field requested: half-life
[A] 0.97

###

test: Single-dose pharmacokinetics in FVB mice (oral gavage, IV); details: female, FVB, mouse, plasma, iv, 1 mg/kg, t1/2, IV 1 mg/kg, female FVB mice
This section presents compounds with their documented half-life values.
Response body: numeric value in h, unit text excluded.

[Q] Query (compound): Cc1ccnc(Nc2nc(-c3ccc(-c4ccccn4)s3)cs2)c1 ; field requested: half-life
[A] 1.17

***
[Q] Query (compound): Cc1cccc(Nc2nc(-c3ccc(-c4ccccc4)cc3)cs2)n1 ; field requested: half-life
[A] 2.15

###

test: physchem; settings: pH 2 (HCl) buffer, pH 2, simulated gastric fluid
Readout Name: log10 of solubility (log10 of the value in µM)
Note the log scale: values are log10 of solubility expressed in µM.

Solved cases below.
[Q] Query (compound): c1ccc2cc(Nc3nc(-c4ccncc4)cs3)ncc2c1 ; field requested: log10 of solubility
[A] 2.29

[Q] Query (compound): Cc1ccc(Nc2nc(-c3cc(-c4ccccc4)no3)cs2)nc1 ; field requested: log10 of solubility
[A] 0.00

***
[Q] Query (compound): Cc1ccnc(Nc2nc(-c3ccncc3)cs2)c1 ; field requested: log10 of solubility
[A] 2.33

[Q] Query (compound): Cc1ccnc(Nc2nc(-c3ccc(-c4ccccn4)s3)cs2)c1 ; field requested: log10 of solubility
[A] 1.89

[Q] Query (compound): COc1ccc(Nc2nc(-c3ccc(OC)c(OC)c3)cs2)nc1 ; field requested: log10 of solubility
[A] 0.00

[Q] Query (compound): Cc1cccc(Nc2nc(-c3cc4ccccc4o3)cs2)n1 ; field requested: log10 of solubility
[A] 1.08
